The origin of these recorded values is ChEMBL document CHEMBL2396583.

Tested on: MDA-MB-231
assay: Cytotoxicity against human MDA-MB-231 cells assessed as viable cells at 1 uM after 72 hrs by MTT assay in absence of serum relative to control
Format: functional
test-context: MDA-MB-231, 72 h, read-out: Activity
Threshold 80%: viability at 1 µM strictly smaller gives T, otherwise F.

(Q) viability at 1 µM under 80%? Item: CN(C)CCCNC1=Nc2ccc(Cl)cc2C(C)(C)C1
(A) T

(Q) Consider the compound CCCNC1=Nc2ccc(Cl)cc2C(C)(C)C1 . Is its viability at 1 µM strictly less than 80%?
(A) F

(Q) Is the reported viability at 1 µM for CCNC1=Nc2ccc(Cl)cc2C(C)(C)C1 strictly below 80%?
(A) F

(Q) Criterion: viability at 1 µM strictly below 80%. Is it met by NC1=Nc2ccccc2C(c2ccccc2)C1 (stereo not drawn) ?
(A) F

(Q) Given the entry CC1(C)CC(NCCCO)=Nc2ccc(Cl)cc21 , would its reported viability at 1 µM be below 80%?
(A) F

(Q) Does this compound meet the criterion viability at 1 µM < 80%? CCN(CC)CCCNC1=Nc2ccc(Cl)cc2C(C)(C)C1
(A) T

(Q) Hello, I'm reviewing records and need to know if viability at 1 µM of CNC1=Nc2ccc(Cl)cc2C(C)(C)C1 is below 80%. Could you check?
(A) F

(Q) Determine whether this compound shows viability at 1 µM lower than 80% (ties excluded): CN(C)CCNC1=Nc2ccc(Cl)cc2C(C)(C)C1
(A) T

(Q) Determine whether this compound shows viability at 1 µM lower than 80% (ties excluded): CC1(C)CC(NCCCN2CCOCC2)=Nc2ccc(Cl)cc21
(A) F

(Q) In the record for CC1(C)CC(=S)Nc2ccc(Cl)cc21 , is viability at 1 µM less than 80%?
(A) F

(Q) Report whether reported viability at 1 µM is lower than 80% (strictly) for CC1(C)CC(NCc2ccccc2)=Nc2ccc(Cl)cc21
(A) F
